Test system: Wnt signaling
PROCEDURE_TEXT: Wnt signaling reporter assay (Super8XTOPFlash luciferase) in LRP6-expressing HEK293 cells
Format: cell-based
CONDITION_LABEL: Homo sapiens, 24 h treatment, luciferase normalized to β-galactosidase, read-out: IC50 (effects on Wnt signaling)
Procedure: HEK293 cells were plated into 24-well plates. After overnight culture, the cells were transiently transfected with 0.06 μg of the Super8XTOPFlash luciferase construct, 0.06 μg of β-galactosidase-expressing vector, and 0.06 μg of pCS-Myc-hLRP6 or control vector. […] Cells were then lysed, and the luciferase and β-galactosidase activities were determined by the luciferase assay system (Promega) and β-galactosidase assay system (Promega), respectively. […]
Give pIC50 for every item shown.
In textbook form, pIC50 equals minus log to base ten of the concentration in mol/L.

Per the records, this compound ( CN1CCN(c2ccc(-c3nc4cc(Cl)c(Cl)cc4[nH]3)cc2F)CC1 ) has pIC50 equal to 8.33

Looking up Fc1cc2[nH]c(-c3ccc(N4CCCC4)cc3)nc2cc1Cl , I see its pIC50 listed as 6.48

The compound listed as FC(F)(F)Oc1ccc(-c2nc3c(Cl)cc(Cl)cc3[nH]2)cc1 has a reported pIC50 of 5.10

Reported pIC50 for FC(F)(F)c1ccc(-c2nc3c(Cl)cc(Cl)cc3[nH]2)cc1 was 5.22

# pIC50 of c1cc2[nH]c(-c3ccc(N4CCCC4)cc3)nc2cn1 = 4.98

The reported value for Oc1c(Cl)cccc1-c1nc2cc(C(F)(F)F)ccc2[nH]1 in terms of pIC50 is 5.56

Per the records, this compound ( FC(F)(F)Oc1ccc(-c2nc3cc(Cl)c(Cl)cc3[nH]2)cc1 ) has pIC50 equal to 6.72

For record Oc1ccc(F)cc1-c1nc2cc(Cl)c(F)cc2[nH]1 the listed pIC50 is 5.55

pIC50 reported for this compound Oc1ccc(Cl)cc1-c1nc2cc(Cl)c(Cl)nc2[nH]1 : 5.73

Entry CN1CCN(c2ccc(-c3nc4cc(Cl)c(Cl)cc4[nH]3)cc2)CC1 , pIC50 reported as 7.89

Sure, the documented pIC50 for Clc1cc2nc(-c3ccc(N4CCCC4)cc3)[nH]c2cc1Cl is 9.03

What the record says about Oc1ccc(F)cc1-c1nc2c(Cl)cc(Cl)cc2[nH]1 : pIC50 is 5.87

The reported pIC50 of the compound Clc1cc2nc(-c3ccc(N4CCCCC4)cc3)[nH]c2cc1Cl was 9.02
